Test system: LS123
Test: Cell growth inhibition (CellTiter-Glo), colon cancer line LS123
Type: cell-based
Conditions: Homo sapiens, LS-123
Protocol: Cell growth inhibitory activity of representative BET bromodomain degraders in representative non-small cell lung cancer cell lines was determined using the CellTiter-Glo® Luminescent Cell Viability Assay. […] Cell viability was determined using the CellTiter-Glo® Luminescent Cell Viability Assay Kit (Promega, Madison, Wis.) according to the manufacture's instruction. […] The luminescent signal was measured using a Tecan Infinite M1000 multimode microplate reader (Tecan, Morrisville, N.C.). […]
Reported IC50 values for a set of compounds
MEASUREMENT LABEL: IC50 (nM)

# COMPOUND, MEASUREMENT LABEL, READING
measured = [
    ("CCn1nc(C2CC2)cc1Nc1nc(COC)nc2[nH]c3cc(-c4c(C)noc4C)c(OC)cc3c12 [Cpd. A, reference compound]", "IC50", 739),
    ("CCn1nc(C2CC2)cc1Nc1nc(C(=O)NCCCOCCOCCOCCCNc2cccc3c2C(=O)N(C2CCC(=O)NC2=O)C3=O)nc2[nH]c3cc(-c4c(C)noc4C)c(OC)cc3c12 (stereo not drawn)", "IC50", 11),
    ("CCn1nc(C2CC2)cc1Nc1nc(C(=O)NCCCCNc2cccc3c2C(=O)N(C2CCC(=O)NC2=O)C3=O)nc2[nH]c3cc(-c4c(C)noc4C)c(OC)cc3c12 (stereo not drawn)", "IC50", 74),
]
